Entry source: ChEMBL document CHEMBL1132737

Assignment: determine reported Parasitaemia for the given compounds.
# System: Plasmodium berghei
# assayText: In vivo activity after 11 days against chloroquine-sensitive Plasmodium berghei infected mice (Mus musculus) at 100 mg/kg intraperitoneal dose over 4 days
# Format: functional

Value of Parasitaemia reported for the compound COc1cccc(/C=C/C(=O)c2ccc(OCCCCCCOc3ccc(C(=O)/C=C/c4cccc(OC)c4)cc3)cc2)c1 is 11%

The compound listed as COc1cccc(/C=C/C(=O)c2ccc(OCCCOc3ccc(C(=O)/C=C/c4cccc(OC)c4)cc3)cc2)c1 has a reported Parasitaemia of 1.8%

Briefly, Parasitaemia measured for COc1ccc(/C=C/C(=O)c2ccc(OCCCCOc3ccc(C(=O)/C=C/c4ccc(OC)c(OC)c4)cc3)cc2)cc1OC : 1%

Given item COc1ccc(/C=C/C(=O)c2ccc(OCCCOc3ccc(C(=O)/C=C/c4ccc(OC)c(OC)c4)cc3)cc2)cc1OC , the value recorded as its Parasitaemia is 0.9%

compound CC(=O)c1ccc(OCCCOc2ccc(C(=O)/C=C/c3ccc4c(c3)OCO4)cc2)cc1 , Parasitaemia observed: 2.75%

* * *

# System: Plasmodium berghei
# assayText: Parasitemia at day 7 after 50 mg/kg/day dose over 4 days
# Type: functional
So I've got a bunch of compounds here, and I need their Parasitaemia values.
Output spec: scalar in %, unitless text.

Entry under test: COc1ccc(/C=C/C(=O)c2ccc(OCCCOc3ccc(C(=O)/C=C/c4ccc(OC)cc4OC)cc3)cc2)c(OC)c1 . Its Parasitaemia was 2.2

Recorded result, COc1ccc(/C=C/C(=O)c2ccc(OCCCCOc3ccc(C(=O)/C=C/c4ccc(OC)cc4OC)cc3)cc2)c(OC)c1 , Parasitaemia: 3.5

The recorded Parasitaemia for COc1cccc(/C=C/C(=O)c2ccc(OCCCCCCOc3ccc(C(=O)/C=C/c4cccc(OC)c4)cc3)cc2)c1 is 3.2

The measured Parasitaemia associated with CC(=O)c1ccc(OCCCCCCOc2ccc(C(=O)/C=C/c3ccc4c(c3)OCO4)cc2)cc1 reads 3.2

For this compound ( COc1ccc(/C=C/C(=O)c2ccc(OCCCOc3ccc(C(=O)/C=C/c4ccc(OC)c(OC)c4)cc3)cc2)cc1OC ), measured Parasitaemia is 2.4

COc1ccc(/C=C/C(=O)c2ccc(OCCCCOc3ccc(C(=O)/C=C/c4ccc(OC)c(OC)c4)cc3)cc2)cc1OC yielded Parasitaemia of 2.5

Lab note: measured Parasitaemia of COc1ccc(/C=C/C(=O)c2ccc(OCCCCCCOc3ccc(C(=O)/C=C/c4ccc(OC)c(OC)c4)cc3)cc2)cc1OC was 1.6

So for COc1cccc(/C=C/C(=O)c2ccc(OCCCOc3ccc(C(=O)/C=C/c4cccc(OC)c4)cc3)cc2)c1 , the logged Parasitaemia turned out to be 1.9

* * *

# Tested on: Plasmodium berghei
# assayText: Parasitemia at day 15 after 50 mg/kg/day dose over 4 days
# Assay type: functional
measuredProperty: Parasitaemia (%)
// note: answer is a bare numeric in %

Form field Parasitaemia, entry CC(=O)c1ccc(OCCCOc2ccc(C(=O)/C=C/c3ccc4c(c3)OCO4)cc2)cc1 : 11.5

For COc1ccc(/C=C/C(=O)c2ccc(OCCCOc3ccc(C(=O)/C=C/c4ccc(OC)cc4OC)cc3)cc2)c(OC)c1 the molecule record lists Parasitaemia as 12.5

Please fill in: Parasitaemia reported for CC(=O)c1ccc(OCCCCCCOc2ccc(C(=O)/C=C/c3ccc4c(c3)OCO4)cc2)cc1 = 10

So, COc1cccc(/C=C/C(=O)c2ccc(OCCCCOc3ccc(C(=O)/C=C/c4cccc(OC)c4)cc3)cc2)c1 ? Its Parasitaemia was 13.3
